- method description: chemical genetic growth profiling, strain panel (AID 1159580);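 also: tested at 20 µM; growth read once vehicle control cultures reached saturation at 30 °C; 1 = growth at the plate median or of vehicle wells; lower values mean less growth of the strain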
- run parameters: S. cerevisiae deletion strains, growth OD, locus YDR069C, strain doa4
Among all 5,500 compounds or so, about 2,000 (36%) were called active. Inconclusive results (about 18%) are left out. Rule as the data show it: active = normalized growth mostly below about 0.91 (no sharp cut-off); inconclusive = no clear call, values can overlap the other calls; inactive = mostly above about 0.92. The list shows a part of the results.
Bench note: report the call from 1 for active, 0 for inactive

Recorded results for 3 compounds are shown here.
[
  {
    "compound": "OCCOCCN1CCN(C2=Nc3ccccc3Sc3ccccc32)CC1",
    "classification": 0
  },
  {
    "compound": "CC(C)NC[C@H](O)COc1cccc2ccccc12",
    "classification": 0
  },
  {
    "compound": "CC(C)C(=O)Nc1ccc([N+](=O)[O-])c(C(F)(F)F)c1",
    "classification": 0
  }
]

Data request: Recorded test outcome, item `O=c1[nH]oc2c1CCNC2`
Data returned: 0

Data request: Recorded test outcome, item `CC1(C)NC(=O)N(c2ccc([N+](=O)[O-])c(C(F)(F)F)c2)C1=O`
Data returned: 0

###

- method description: chemical genetic growth profiling, strain panel (AID 1159580);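 also: tested at 20 µM; growth read once vehicle control cultures reached saturation at 30 °C; 1 = growth at the plate median or of vehicle wells; lower values mean less growth of the strain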
- run parameters: S. cerevisiae deletion strains, growth OD, locus YOR270C, strain vph1
Out of some 5,500 compounds screened, about 2,000 (36%) were called active. Not shown: some 18% with an inconclusive outcome. No stated cut-off is given here; in the data, active means normalized growth mostly below about 0.91 (no sharp cut-off); inconclusive means no clear call, values can overlap the other calls; inactive means mostly above about 0.92. The list shows a part of the results.
Bench note: report the call from Yes for active, No for inactive

Data request: Recorded test outcome, item `COc1ccc(CCN2CCC(Nc3nc4ccccc4n3Cc3ccc(F)cc3)CC2)cc1`
Data returned: Yes

Data request: Recorded test outcome, item COC(=O)C(O)c1ccccc1 (stereo unspecified)
Data returned: No

Data request: Recorded test outcome, item `O=c1[nH]oc2c1CCNC2`
Data returned: No

Data request: Recorded test outcome, item COC(=O)C(C)c1ccc(C(=O)c2cccs2)cc1 (stereo unspecified)
Data returned: No

Data request: Recorded test outcome, item CC(C(=O)O)c1ccc(C(=O)c2cccs2)cc1 (stereo unspecified)
Data returned: No

Data request: Recorded test outcome, item `COC(=O)C[C@H]1C(C)(C)C(=O)[C@@H]2CC3=C(CC[C@]4(C)C3=CC(=O)O[C@H]4c3ccoc3)[C@@]1(C)C2=O`
Data returned: No

###

- method description: chemical genetic growth profiling, strain panel (AID 1159580);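 also: tested at 20 µM; growth read once vehicle control cultures reached saturation at 30 °C; 1 = growth at the plate median or of vehicle wells; lower values mean less growth of the strain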
- run parameters: S. cerevisiae deletion strains, growth OD, locus YNL271C, strain bni1, hits give low values
In all, about 5,500 compounds went through this assay and about 2,000 (36%) were called active. Inconclusive results (about 18%) are left out. This is one part of the list.
# key: entry, value: normalized growth
Write the number on its own, no unit after it.

[
  {
    "compound": "C#CCCCCCCCCCCCC(=O)CC(O)COC(C)=O (stereo unspecified)",
    "normalized growth": 0.965
  },
  {
    "compound": "CC(=O)OCC(COC(C)=O)OC(C)=O",
    "normalized growth": 1.02
  },
  {
    "compound": "CC1(C)O[C@@H]2CC3C4CCC5=CC(=O)CCC5(C)C4(F)C(O)CC3(C)[C@]2(C(=O)CCl)O1 (stereo partly specified)",
    "normalized growth": 0.986
  },
  {
    "compound": "CC[C@H](C)C(=O)O[C@H]1CCC=C2C=C[C@H](C)C(CCC3C[C@@H](O)CC(=O)O3)[C@H]21 (stereo partly specified)",
    "normalized growth": 0.977
  },
  {
    "compound": "C#CCCCCCCCCCCCC(O)CC(O)CO (stereo unspecified)",
    "normalized growth": 1.02
  }
]

From here, focus on the item given below.
Data request: Given the entry `NC(N)=NS(=O)(=O)c1ccc(N)cc1` , report its measured normalized growth.
Data returned: 0.985
